Tested System: UniProtKB Q16790
Experiment Summary: biochemical
Measurement Type: IC50 (nM)
State the answer as a number, implicitly in nM.

// solved cases for IC50 follow
[[record]]
molecule = "CCOC(=O)C1CSc2[nH]c(=O)sc2C1c1cn(-c2ccccc2)nc1-c1ccccc1 (centres unmarked) [compound 7f]"
measurement_type = "IC50"
value = 928

[[record]]
molecule = "CCOC(=O)C1CSc2[nH]c(=O)sc2C1c1cn(-c2ccccc2)nc1-c1ccc(Br)cc1 (centres unmarked) [compound 7j]"
measurement_type = "IC50"
value = 239

[[record]]
molecule = "CCOC(=O)C1CSc2[nH]c(=O)sc2C1c1cn(-c2ccccc2)nc1-c1ccc(C)cc1 (centres unmarked) [compound 7g]"
measurement_type = "IC50"
value = 390

[[record]]
molecule = "O=C1NC(=S)C(=Cc2cn(-c3ccccc3)nc2-c2ccc(Br)cc2)S1 [compound 3e]"
measurement_type = "IC50"
value = 349


## Input Please look up its IC50: CCOC(=O)C1CSc2[nH]c(=O)sc2C1c1cn(-c2ccccc2)nc1-c1ccc(Cl)cc1 (centres unmarked) [compound 7i]
## Output 287

## Input Please look up its IC50: N#CC1CSc2[nH]c(=O)sc2C1c1cn(-c2ccccc2)nc1-c1ccc(Br)cc1 (centres unmarked) [compound 7e]
## Output 67

## Input Please look up its IC50: Cc1ccc(-c2nn(-c3ccccc3)cc2C2c3sc(=O)[nH]c3SC3C(=O)N(c4ccccc4)C(=O)C32)cc1 (centres unmarked) [compound 5d]
## Output 336

## Input Please look up its IC50: CCOC(=O)C1CSc2[nH]c(=O)sc2C1c1cn(-c2ccccc2)nc1-c1ccc(OC)cc1 (centres unmarked) [compound 7h]
## Output 133

----------
Tested on: MCF-7 cell line
Experiment Summary: MTT cytotoxicity assay, MCF-7
Assay type: cell-based, human
Measurement Type: anticancer/cytotoxic activity in words, MCF-7

[[record]]
compound = "CCOC(=O)C1CSc2[nH]c(=O)sc2C1c1cn(-c2ccccc2)nc1-c1ccc(C)cc1 (stereo not shown)"
tested_system = "MCF-7 cell line"
value = "strong cytotoxicity"

[[record]]
compound = "CCOC(=O)C1CSc2[nH]c(=O)sc2C1c1cn(-c2ccccc2)nc1-c1ccc(Br)cc1 (stereo not shown)"
tested_system = "MCF-7 cell line"
value = "strong cytotoxicity"


----------
System: HePG-2 cell line
Experiment Summary: MTT cytotoxicity assay, HePG-2
Type: cell-based, human
Measurement Type: anticancer/cytotoxic activity in words, HePG-2

[[record]]
compound = "CCOC(=O)C1CSc2[nH]c(=O)sc2C1c1cn(-c2ccccc2)nc1-c1ccc(C)cc1 (centres unmarked) [compound 7g]"
value = "strong cytotoxicity"

[[record]]
compound = "O=C1NC(=S)C(=Cc2cn(-c3ccccc3)nc2-c2ccccc2)S1 [compound 3a]"
value = "weak activity"

[[record]]
compound = "CCOC(=O)C1CSc2[nH]c(=O)sc2C1c1cn(-c2ccccc2)nc1-c1ccc(OC)cc1 (centres unmarked) [compound 7h]"
value = "strong cytotoxicity"

[[record]]
compound = "Cc1ccc(-c2nn(-c3ccccc3)cc2C=C2SC(=O)NC2=S)cc1 [compound 3b]"
value = "weak activity"


----------
Tested System: recombinant human carbonic anhydrase XII (hCAXII) (Homo sapiens, UniProt O43570)
Sequence (O43570 25-291): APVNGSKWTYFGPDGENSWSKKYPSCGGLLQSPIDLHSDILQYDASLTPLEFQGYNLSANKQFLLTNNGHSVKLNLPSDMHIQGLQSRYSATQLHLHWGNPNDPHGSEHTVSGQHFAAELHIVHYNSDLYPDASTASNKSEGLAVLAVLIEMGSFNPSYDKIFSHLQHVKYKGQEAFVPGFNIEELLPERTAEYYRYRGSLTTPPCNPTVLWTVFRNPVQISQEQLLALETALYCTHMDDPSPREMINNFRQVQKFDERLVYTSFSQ
Experiment Summary: hCAXII enzyme inhibition assay
Type: biochemical
Measurement Type: pIC50
Friendly reminder that pIC50 comes from taking -log10 of the concentration in mol/L.

## Input Can you look up pIC50 on recombinant human carbonic anhydrase XII (hCAXII) (Homo sapiens, UniProt O43570) for CCOC(=O)C1CSc2[nH]c(=O)sc2C1c1cn(-c2ccccc2)nc1-c1ccc(Cl)cc1 (centres unmarked) [compound 7i] ?
## Output 6.91

## Input Can you look up pIC50 on recombinant human carbonic anhydrase XII (hCAXII) (Homo sapiens, UniProt O43570) for CCOC(=O)C1CSc2[nH]c(=O)sc2C1c1cn(-c2ccccc2)nc1-c1ccc(C)cc1 (centres unmarked) [compound 7g] ?
## Output 6.25

## Input Can you look up pIC50 on recombinant human carbonic anhydrase XII (hCAXII) (Homo sapiens, UniProt O43570) for Cc1ccc(-c2nn(-c3ccccc3)cc2C2c3sc(=O)[nH]c3SC3C(=O)N(c4ccccc4)C(=O)C32)cc1 (centres unmarked) [compound 5d] ?
## Output 6.22

## Input Can you look up pIC50 on recombinant human carbonic anhydrase XII (hCAXII) (Homo sapiens, UniProt O43570) for CCOC(=O)C1CSc2[nH]c(=O)sc2C1c1cn(-c2ccccc2)nc1-c1ccccc1 (centres unmarked) [compound 7f] ?
## Output 5.98

## Input Can you look up pIC50 on recombinant human carbonic anhydrase XII (hCAXII) (Homo sapiens, UniProt O43570) for CCOC(=O)C1CSc2[nH]c(=O)sc2C1c1cn(-c2ccccc2)nc1-c1ccc(OC)cc1 (centres unmarked) [compound 7h] ?
## Output 6.39

## Input Can you look up pIC50 on recombinant human carbonic anhydrase XII (hCAXII) (Homo sapiens, UniProt O43570) for O=C1NC(=S)C(=Cc2cn(-c3ccccc3)nc2-c2ccc(Br)cc2)S1 [compound 3e] ?
## Output 6.25

## Input Can you look up pIC50 on recombinant human carbonic anhydrase XII (hCAXII) (Homo sapiens, UniProt O43570) for CCOC(=O)C1CSc2[nH]c(=O)sc2C1c1cn(-c2ccccc2)nc1-c1ccc(Br)cc1 (centres unmarked) [compound 7j] ?
## Output 6.23

## Input Can you look up pIC50 on recombinant human carbonic anhydrase XII (hCAXII) (Homo sapiens, UniProt O43570) for N#CC1CSc2[nH]c(=O)sc2C1c1cn(-c2ccccc2)nc1-c1ccc(Br)cc1 (centres unmarked) [compound 7e] ?
## Output 6.69

----------
System: MCF-7 cell line
Experiment Summary: MTT cytotoxicity assay, MCF-7
Type: cell-based, human
Measurement Type: anticancer/cytotoxic activity in words, MCF-7

[[record]]
compound = "Cc1ccc(-c2nn(-c3ccccc3)cc2C=C2SC(=O)NC2=S)cc1 [compound 3b]"
tested_system = "MCF-7 cell line"
value = "weak activity"

[[record]]
compound = "O=C1NC(=S)C(=Cc2cn(-c3ccccc3)nc2-c2ccccc2)S1 [compound 3a]"
tested_system = "MCF-7 cell line"
value = "weak activity"

